experimental target: Human immunodeficiency virus type 1 protease (Human immunodeficiency virus 1)
method notes: Binding affinity against HIV-1 protease

{"molecule": "CCC(C)C(NC(=O)OCc1ccccc1)C(=O)N[C@@H](Cc1ccccc1)[C@@H](O)[C@@H](NCc1ccc(OC)cc1)C(=O)N[C@@H]1c2ccccc2CC1O (stereo partly drawn)", "Ki [µM]": 0.0082}
{"molecule": "COc1ccc(CN[C@@H](C(=O)N[C@H]2c3ccccc3C[C@H]2O)[C@H](O)[C@H](Cc2ccccc2)NC(=O)[C@@H](NC(=O)Nc2cccc(OC)c2OC)C(C)(C)C)cc1", "Ki [µM]": 0.013}
{"molecule": "CC(C)(C)OC(=O)N[C@@H](Cc1ccccc1)[C@@H](O)[C@@H](NCc1ccc(CNC(=O)CCc2nc3ccccc3[nH]2)cc1)C(=O)N[C@H]1c2ccccc2C[C@H]1O", "Ki [µM]": 0.041}

====

method notes: Oral Bioavailability was measured as Maximal observed concentration (Cmax) value at dose 125 mg/kg; b = No compound detectable in blood above the detection limit of 0.1 uM
Format: ADME, organism-based
Set-up: dose 125 mg/kg, route oral
particulars: in vivo

{"molecule": "CC(C)(C)[C@H](NC(=O)OCc1ccccc1)C(=O)N[C@@H](Cc1ccccc1)[C@@H](O)[C@@H](NCc1ccc(CNC(=O)Nc2ccccc2)cc1)C(=O)N[C@H]1c2ccccc2C[C@H]1O", "Cmax": "No compound detectable"}
{"molecule": "CC(=O)NCc1ccc(CN[C@@H](C(=O)N[C@H]2c3ccccc3C[C@H]2O)[C@H](O)[C@H](Cc2ccccc2)NC(=O)[C@@H](NC(=O)OCc2ccccc2)C(C)(C)C)cc1", "Cmax": "No compound detectable"}
{"molecule": "CC(C)(C)[C@H](NC(=O)OCc1ccccc1)C(=O)N[C@@H](Cc1ccccc1)[C@@H](O)[C@@H](NCc1ccc(OCCN2CCOCC2)cc1)C(=O)N[C@H]1c2ccccc2C[C@H]1O", "Cmax": "No compound detectable"}
{"molecule": "COc1ccc(CN[C@@H](C(=O)N[C@H]2c3ccccc3C[C@H]2O)[C@H](O)[C@H](Cc2ccccc2)NC(=O)[C@@H](NC(=O)CCc2nc3ccccc3[nH]2)C(C)(C)C)cc1", "Cmax": "No compound detectable"}

====

method notes: Oral Bioavailability was measured as area-under-curve(AUC) value at dose 125 mg/kg
Format: ADME, organism-based
particulars: in vivo
Known AUC of a selection of molecules
endpoint: AUC (µM·h)

{"molecule": "COc1ccc(CN[C@@H](C(=O)NC2c3ccccc3C[C@H]2O)[C@H](O)[C@H](Cc2ccccc2)NC(=O)[C@@H](NC(=O)CCc2ccc(OC)c(O)c2)C(C)(C)C)cc1 (some centres not stated)", "endpoint": "AUC", "number": 0.2}
{"molecule": "COc1ccc(CN[C@@H](C(=O)NC2c3ccccc3C[C@H]2O)[C@H](O)[C@H](Cc2ccccc2)NC(=O)[C@@H](NC(=O)CSc2nnc(C)s2)C(C)(C)C)cc1 (some centres not stated)", "endpoint": "AUC", "number": 60.3}
{"molecule": "COc1ccc(CN[C@@H](C(=O)N[C@H]2c3ccccc3CC2O)[C@H](O)[C@H](Cc2ccccc2)NC(=O)[C@@H](NC(=O)OCc2ccccc2)C(C)C)cc1 (some centres not stated)", "endpoint": "AUC", "number": 137}
{"molecule": "COc1ccc(CN[C@@H](C(=O)NC2c3ccccc3C[C@H]2O)[C@H](O)[C@H](Cc2ccccc2)NC(=O)[C@@H](NC(=O)CCc2ccccc2O)C(C)(C)C)cc1 (some centres not stated)", "endpoint": "AUC", "number": 11.8}
{"molecule": "COc1ccc(CN[C@@H](C(=O)N[C@H]2c3ccccc3C[C@H]2O)[C@H](O)[C@H](Cc2ccccc2)NC(=O)[C@@H](NC(=O)OCc2ccccc2)C(C)(C)C)cc1", "endpoint": "AUC", "number": 82.5}
{"molecule": "COc1ccc(CN[C@@H](C(=O)NC2c3ccccc3C[C@H]2O)[C@H](O)[C@H](Cc2ccccc2)NC(=O)[C@@H](NC(=O)CSc2nncn2C)C(C)(C)C)cc1 (some centres not stated)", "endpoint": "AUC", "number": 1.6}
{"molecule": "CC(C)(C)OC(=O)N[C@@H](Cc1ccccc1)[C@@H](O)[C@@H](NCc1ccccc1)C(=O)NCc1ccccc1", "endpoint": "AUC", "number": 0.8}
{"molecule": "COc1ccc(CN[C@@H](C(=O)NC(C(=O)NCc2nc3ccccc3[nH]2)C(C)C)[C@H](O)[C@H](Cc2ccccc2)NC(=O)OC(C)(C)C)cc1 (some centres not stated)", "endpoint": "AUC", "number": 127}
{"molecule": "CC(C)(C)[C@H](NC(=O)OCc1ccccc1)C(=O)N[C@@H](Cc1ccccc1)[C@@H](O)[C@@H](NCc1ccc(OCCO)cc1)C(=O)N[C@H]1c2ccccc2C[C@H]1O", "endpoint": "AUC", "number": 5.9}
{"molecule": "COc1ccc(CN[C@@H](C(=O)N[C@H](C(=O)NCc2nc3ccccc3[nH]2)C(C)C)[C@H](O)[C@H](Cc2ccccc2)NC(=O)[C@@H](NC(=O)OCc2ccccc2)C(C)(C)C)cc1", "endpoint": "AUC", "number": 0.6}
{"molecule": "CCOc1ccc(CN[C@@H](C(=O)N[C@H]2c3ccccc3C[C@H]2O)[C@H](O)[C@H](Cc2ccccc2)NC(=O)[C@@H](NC(=O)OCc2ccccc2)C(C)(C)C)cc1", "endpoint": "AUC", "number": 23.9}
{"molecule": "COc1ccc(CN[C@@H](C(=O)NC2c3ccccc3C[C@H]2O)[C@H](O)[C@H](Cc2ccccc2)NC(=O)[C@@H](NC(=O)CSc2nnn(C)n2)C(C)(C)C)cc1 (some centres not stated)", "endpoint": "AUC", "number": 7.4}
